Hello, the source for this data is patent US20160185837A1, in case you need it.

Molecular target: T1, mouse GIP receptor (mouse) (UniProt Q0P543)
T1 sequence (looked up): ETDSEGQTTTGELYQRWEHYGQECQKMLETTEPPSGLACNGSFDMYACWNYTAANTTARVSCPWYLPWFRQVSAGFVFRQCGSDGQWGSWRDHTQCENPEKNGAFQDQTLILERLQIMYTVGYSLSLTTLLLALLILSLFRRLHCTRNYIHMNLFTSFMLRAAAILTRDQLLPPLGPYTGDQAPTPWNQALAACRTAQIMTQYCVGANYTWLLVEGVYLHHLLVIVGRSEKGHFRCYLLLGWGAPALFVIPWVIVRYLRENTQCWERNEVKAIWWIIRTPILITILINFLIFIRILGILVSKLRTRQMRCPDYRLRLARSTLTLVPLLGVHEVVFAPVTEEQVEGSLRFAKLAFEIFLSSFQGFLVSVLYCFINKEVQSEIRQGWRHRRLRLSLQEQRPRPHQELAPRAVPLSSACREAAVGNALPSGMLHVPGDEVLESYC
Test: cell-based or functional assay
quantity kind: cAMP EC50 (nM)

The following binders have reported results that may help.
binder	units symbol	cAMP EC50
IP398 (Fc fusion) YSEGTFISDYSIAMDKIHQQDFVNWLLAQKGKKNDWKHNITQGGGGSGGGGSGGGGSGGGGSGGGGSGGGGSACPPC	nM	0.012
IP331 (Fc fusion) YSEGTFTSDYSKLLERQAIDEFIADLLKGGGGGGGSGGGGSGGGGSGGGGSGGGGSGGGGSA	nM	4

a: IP349 (Fc fusion) YSEGTFTSDYSKLLERQAIDEFIANLLKGGGGGGGSGGGGSGGGGSGGGGSGGGGSGGGGSA
b: IP315 (Fc fusion) YSEGTFISDYSSYLERQAIDEFIAWLLKGGAAAGGSGSTASSGSGSATGGGGAATHTCPPC
c: IP312 (Fc fusion) YSEGTFISDVSSYMERQAIDEFIAWLLKGGAAAGGSGSTASSGSGSATGGGGAATHTCPPC
Input: Rank entries according to their cAMP EC50, from the largest number down. State the ranking by listing the labels in the requested order.
Output: c, a, b
